Test: NCI Yeast Anticancer Drug Screen. Data for the rad14 strain (AID 159);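 note: 0% = growth of vehicle-treated control cultures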
Details: S. cerevisiae rad14 strain growth inhibition; at 100.0 µM
About 79,000 compounds went through this panel and 15% of them were active in at least one assay; those are over-represented in the sample as a whole. Active and inactive are the calls of the source. Cut-off read from the data, not from the text of the source: active = growth inhibition above about 70%; inactive = the rest.
Result category, one only: label 1 for active, label 0 for inactive

These recorded examples may help you get a feel for the data.
>>> label("C[N+](CCCl)(CCCl)Cc1cccc2cccc([N+](=O)[O-])c12")
"label 1"
>>> label("CCCCCCCCCCCCCCCCP(=O)(O)OP(=O)(O)OCC1OC(n2ccc(N)nc2=O)C(O)C1O (stereo not given)")
"label 0"
>>> label("O=C(O)C1C2CCC(C2)C1c1ccccc1 (stereo not given)")
"label 0"
>>> label("CCNCC(=O)O[C@]1(CC)C(=O)OCc2c1cc1n(c2=O)Cc2cc3ccccc3nc2-1")
"label 0"
>>> label("CC(C)CC(NC(=O)C(N)C(C)C)C(=O)NC(CCCCN)C(=O)Nc1ccc(N(CCCl)CCCl)cc1 (stereo not given)")
"label 0"

Request: So what was the verdict on O=[N+]([O-])c1ccc(C=Cc2ccccc2)cc1.[C-]#[O+].[C-]#[O+].[C-]#[O+].[Cr] in this test?
Response: label 1

Request: Entry O=C(O)C1C2C=CC(C2)C1c1ccccc1 (stereo not given) : call = ?
Response: label 0

Request: Per the assay record, what outcome was assigned to OC1CCCC2CCC[N-]C12.OC1CCCC2CCC[N-]C12.[O]=[V][OH] (stereo not given) ?
Response: label 1

Request: How was CS(=O)(=O)OCCN(CCOS(C)(=O)=O)c1ccc(C=O)cc1 classified in this test?
Response: label 1

Request: Hi, do you know how Nc1nnc(N)n1-n1c(N)nnc1N came out in this test?
Response: label 0

---

Assay: NCI Yeast Anticancer Drug Screen. Data for the wt1 strain (AID 149);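 note: 0% = growth of vehicle-treated wt1 cultures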
Conditions: S. cerevisiae wt1 strain (SPY 50644) growth inhibition; at 11.0 µM; stronger effect = higher value
Procedure: Growth inhibition of yeast strains with defined genetic alterations is measured as a screen for potential anti-cancer activity. Selected strains with alterations in DNA damage repair or cell cycle control were exposed to compounds and growth inhibition was measured relative to vehicle treated controls. The strain used in this assay is wt1
The panel holds about 79,000 compounds, 15% with a hit somewhere; the sample as a whole holds those more often.
Listed compounds paired with reported growth inhibition
Answer in %, number only, no unit symbol.

Worked examples, 5 compounds total:
>>> value("C[N+]1(CCCl)CC[N+](C)(CCCl)CC1 (configuration not stated)")
1
>>> value("O=C1C=CC(=O)C1(Br)Br")
8
>>> value("CCOC(=O)C1([Se]c2ccccc2)CCCC1=O (configuration not stated)")
24
>>> value("Nc1nc(N)c(-c2ccc(Cl)c(Cl)c2)c(CP(Cl)(Cl)(Cl)Br)n1")
45
>>> value("O=C(O)CCCOc1cc(Cl)c(Cl)cc1Cl")
2

Request: Requested field: growth inhibition. Item: CC1=C(N2CC2)C(=O)c2ccccc2C1=O
Response: -6

Request: So what's the measured growth inhibition for this one? C=C[C@H]1CN2CC[C@H]1C[C@@H]2[C@@H](O)c1ccnc2ccccc12
Response: -4

Request: Could you share which growth inhibition value was measured for COC(=O)C1C2c3ccccc3C(c3ccccc32)C1C(=O)OC (configuration not stated) ?
Response: 5

Request: Requested read-out: growth inhibition. Entry: [O-][n+]1c2cccc(O)c2[n+]([O-])c2cccc(O)c21
Response: 7

Request: Any idea what its growth inhibition is? The compound is C/C(=N\NC(N)=O)C(CN1CCOCC1)C(c1ccccc1)c1c(O)c2ccccc2oc1=O (configuration not stated)
Response: 1

Request: Which growth inhibition is listed for O=C1c2ccccc2C(=O)C(Cl)C1Cl (configuration not stated) ?
Response: 72
